# experimental-protocol: Pharmacokinetics (plasma and lung tissue) after single and 5-day repeat oral dosing in female 129S1 mice
# reported-conditions: female, 129S1, mouse, in vivo, po, 50 mg/kg, AUClast ± SE, plasma; 50 mg/kg PO single dose
test-readout: AUC(0-t) (ng·h/mL)

>>> value_reported("Cc1c(-c2ccc(O)cc2)n(Cc2ccc(OCCN3CCCCC3)cc2)c2ccc(O)cc12 [Pipendoxifene]")
1600

---

# experimental-protocol: Pharmacokinetics (plasma and lung tissue) after single and 5-day repeat oral dosing in female 129S1 mice
# reported-conditions: female, 129S1, mouse, lung, oral, 50 mg/kg, Mean lung tissue concentration, 50 mg/kg PO multiple, 5-day, dose; 8.0 hr
test-readout: concentration at 8 h (ng/g)

>>> value_reported("Cc1c(-c2ccc(O)cc2)n(Cc2ccc(OCCN3CCCCC3)cc2)c2ccc(O)cc12 [Pipendoxifene]")
5610

---

# experimental-protocol: Pharmacokinetics (plasma and lung tissue) after single and 5-day repeat oral dosing in female 129S1 mice
# reported-conditions: female, 129S1, mouse, plasma, oral, 50 mg/kg, Mean plasma concentration, 50 mg/kg PO single dose; 1.0 hr
test-readout: concentration at 1 hr

>>> value_reported("Cc1c(-c2ccc(O)cc2)n(Cc2ccc(OCCN3CCCCC3)cc2)c2ccc(O)cc12 [Pipendoxifene]")
"89.1 ng/mL"

---

# experimental-protocol: Pharmacokinetics (plasma and lung tissue) after single and 5-day repeat oral dosing in female 129S1 mice
# reported-conditions: female, 129S1, mouse, in vivo, po, 250 mg/kg
test-readout: Cmax at 5 day (ng/g)

>>> value_reported("Cc1c(-c2ccc(O)cc2)n(Cc2ccc(OCCN3CCCCC3)cc2)c2ccc(O)cc12 [Pipendoxifene]")
39000

---

# experimental-protocol: Pharmacokinetics (plasma and lung tissue) after single and 5-day repeat oral dosing in female 129S1 mice
# reported-conditions: female, 129S1, mouse, in vivo, po, 250 mg/kg, MRTlast, plasma; 250 mg/kg PO single dose
test-readout: MRT last (h)

>>> value_reported("Cc1c(-c2ccc(O)cc2)n(Cc2ccc(OCCN3CCCCC3)cc2)c2ccc(O)cc12 [Pipendoxifene]")
8.86

---

# experimental-protocol: Pharmacokinetics (plasma and lung tissue) after single and 5-day repeat oral dosing in female 129S1 mice
# reported-conditions: female, 129S1, mouse, in vivo, po, 250 mg/kg
test-readout: half-life

>>> value_reported("Cc1c(-c2ccc(O)cc2)n(Cc2ccc(OCCN3CCCCC3)cc2)c2ccc(O)cc12 [Pipendoxifene]")
"3.96 h"

---

# experimental-protocol: Pharmacokinetics (plasma and lung tissue) after single and 5-day repeat oral dosing in female 129S1 mice
# reported-conditions: female, 129S1, mouse, in vivo, po, 250 mg/kg, AUC∞, plasma; 250 mg/kg PO single dose
test-readout: AUC(0-inf) (ng·h/mL)

>>> value_reported("Cc1c(-c2ccc(O)cc2)n(Cc2ccc(OCCN3CCCCC3)cc2)c2ccc(O)cc12 [Pipendoxifene]")
10500

---

# experimental-protocol: Pharmacokinetics (plasma and lung tissue) after single and 5-day repeat oral dosing in female 129S1 mice
# reported-conditions: female, 129S1, mouse, in vivo, 250 mg/kg
test-readout: concentration at 8 h (ng/mL)

>>> value_reported("Cc1c(-c2ccc(O)cc2)n(Cc2ccc(OCCN3CCCCC3)cc2)c2ccc(O)cc12 [Pipendoxifene]")
575

---

# experimental-protocol: in vivo
# reported-conditions: male, Sprague-Dawley, rat, po, 1000 mg/kg, Plasma concentration
test-readout: concentration at 8 h (ng/mL)

>>> value_reported("Cc1c(-c2ccc(O)cc2)n(Cc2ccc(OCCN3CCCCC3)cc2)c2ccc(O)cc12 [Pipendoxifene]")
295
